measured_target: glucokinase (GK) (Homo sapiens)
Construct: I.D. No. 1 corresponds to residues 12-465 of glucokinase; made in house; host or cells: E. coli DH10b-T1r
Sequence (P35557 with tags, fused parts or gaps isoform P35557-2): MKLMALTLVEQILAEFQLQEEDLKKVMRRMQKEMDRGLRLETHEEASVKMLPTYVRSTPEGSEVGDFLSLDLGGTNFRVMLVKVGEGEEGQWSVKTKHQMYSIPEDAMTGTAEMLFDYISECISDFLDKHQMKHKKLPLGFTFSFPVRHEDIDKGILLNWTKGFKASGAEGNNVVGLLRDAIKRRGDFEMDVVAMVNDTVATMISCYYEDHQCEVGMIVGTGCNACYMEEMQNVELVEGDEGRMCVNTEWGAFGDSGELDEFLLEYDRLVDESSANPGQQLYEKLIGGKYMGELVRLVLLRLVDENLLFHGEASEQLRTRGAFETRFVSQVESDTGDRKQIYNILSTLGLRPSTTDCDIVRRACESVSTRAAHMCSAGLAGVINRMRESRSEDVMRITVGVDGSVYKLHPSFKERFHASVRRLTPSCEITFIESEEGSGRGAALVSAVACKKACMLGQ
measurement_description: enzymatic glucokinase activity assay (ATP consumption, KinaseGlo luminescence)
Format: biochemical
study_conditions: calculated maximal gain in GK enzyme activity at a saturating concentration of the compound; 5 mM Glucose, 5 μM ATP; read-out: % ACTmax
value_kind: Emax

Previously resolved entries follow.
INSERT INTO measurements (compound, reading) VALUES
  ('CC(C)CC(C(=O)Nc1nccs1)n1cc2ccccc2n1 (stereo not drawn) [Example 2]', '> 60%'),
  ('CC(C)CC(C(=O)Nc1nccs1)n1cc2cc(F)ccc2n1 (stereo not drawn) [Example 3]', '50 to 60%');

Task: Return reported Emax; argument: N=C1c2ccccc2CN1C(CC1CCCCC1)C(=O)Nc1nccs1 (stereo not drawn) [Example 11]
Output: > 60%

----------
measured_target: glucokinase (GK) (Homo sapiens, UniProt P35557)
Construct: I.D. No. 1 corresponds to residues 12-465 of glucokinase
measurement_description: enzymatic glucokinase activity assay (ATP consumption, KinaseGlo luminescence)
study_conditions: negative log of Kact, the concentration that displays 50% of the maximal increase in GK activity; 5 mM Glucose, 5 μM ATP, 60 min at room temperature; read-out: pKact
Description: The activity of compounds as glucokinase activators may be assayed in vitro, in vivo or in a cell line. Provided below is an enzymatic glucokinase activity assay. Purified glucokinase may be obtained as follows. […] Recombinant protein may be isolated from cellular extracts by passage over Sepharose Q Fast Flow resin (Pharmacia). […] The purity of GK may be determined on denaturing SDS-PAGE gel. […]
Consider the following compounds; for each one, report its EC50.

Previously resolved entries follow.
INSERT INTO measurements (compound, reading) VALUES
  ('CC(C)CC(C(=O)Nc1nccs1)n1cc2ccc(S(C)(=O)=O)cc2n1 (stereo not drawn)', '12.6 to 25.1 µM'),
  ('CC(C)CC(C(=O)Nc1nccs1)n1cc2ccccc2n1 (stereo not drawn)', '≥ 31.6 µM'),
  ('CC(C)CC(C(=O)Nc1nccs1)n1cc2ccc([N+](=O)[O-])cc2n1 (stereo not drawn)', '≤ 10 µM'),
  ('CC(C)CC(C(=O)Nc1nccs1)N1C(=O)c2ccccc2C1=O (stereo not drawn)', '≤ 10 µM'),
  ('Cc1c2cc(F)ccc2nn1C(CC(C)C)C(=O)Nc1nccs1 (stereo not drawn)', '12.6 to 25.1 µM'),
  ('Cc1c2ccccc2nn1C(CC(C)C)C(=O)Nc1nccs1 (stereo not drawn)', '≤ 10 µM');

For each of the items listed, what is its EC50?
1. CC(C)CC(C(=O)Nc1ccccn1)N1C(=O)c2ccccc2C1=O (stereo not drawn)
2. N=C1c2cc(F)ccc2CN1C(CC1CCCCC1)C(=O)Nc1nccs1 (stereo not drawn)
3. COc1ccc2nn(C(CC(C)C)C(=O)Nc3nccs3)cc2c1 (stereo not drawn)
4. N=C1c2ccccc2CN1C(CC1CCCCC1)C(=O)Nc1nccs1 (stereo not drawn)
5. CC(C)CC(C(=O)Nc1nccs1)n1cc2cc(O)ccc2n1 (stereo not drawn)
6. CC(C)CC(C(=O)Nc1nccs1)n1cc2cc(F)ccc2n1 (stereo not drawn)

Output:
1. 12.6 to 25.1 µM
2. 12.6 to 25.1 µM
3. ≥ 31.6 µM
4. ≤ 10 µM
5. ≥ 31.6 µM
6. ≥ 31.6 µM
